Target: human serum albumin (human) (UniProt P02768)
Sequence (P02768 25-609 limits assumed): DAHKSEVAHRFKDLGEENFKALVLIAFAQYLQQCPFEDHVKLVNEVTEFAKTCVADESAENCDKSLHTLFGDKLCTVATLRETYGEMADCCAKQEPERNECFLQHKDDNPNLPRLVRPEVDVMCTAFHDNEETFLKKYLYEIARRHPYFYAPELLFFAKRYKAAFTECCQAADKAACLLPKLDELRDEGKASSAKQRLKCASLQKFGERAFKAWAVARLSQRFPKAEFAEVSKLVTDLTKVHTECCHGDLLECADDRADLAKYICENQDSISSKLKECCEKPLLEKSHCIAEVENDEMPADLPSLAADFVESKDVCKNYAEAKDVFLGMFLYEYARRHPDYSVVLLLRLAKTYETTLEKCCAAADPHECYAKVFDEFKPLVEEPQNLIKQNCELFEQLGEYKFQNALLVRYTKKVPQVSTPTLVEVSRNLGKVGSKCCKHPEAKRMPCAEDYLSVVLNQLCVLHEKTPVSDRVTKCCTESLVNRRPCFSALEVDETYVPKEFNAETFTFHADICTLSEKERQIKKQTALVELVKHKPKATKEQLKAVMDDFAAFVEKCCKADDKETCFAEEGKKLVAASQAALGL
Assay: screening ELISA
With a cut-off of 3000, any HSA strictly below it is called Criterion met; any HSA meeting it or above is called Criterion not met.

Observe how each entry below is paired with its result.
{"binder": "SEQ ID NO 97 (designed binder) MLPAPKNLVVSRVTEDSARLSWTAPDAAFDSFFISYFEGWASGEAIHLYVPGSERSYDLTGLKPGTEYSVHIQGVKGGQPSTPLSAIFTT", "category": "Criterion met"}
{"binder": "SEQ ID NO 218 (designed binder) MLPAPKNLVVSRVTEDSARLSWTAPDAAFDSFTILYYEMVGEGEAIVLTVPGSERSYDLTGPKPGTEYWVDIYGVKGGGWSRPLSAIFTT", "category": "Criterion not met"}
{"binder": "SEQ ID NO 281 (designed binder) MLPAPKNLVVSRVTEDSARLSWTAPDAAFDSFYIDYDEIHDWGEAIVLTVPGSERSYDLTGLKPGTEYAVQIGGVKGGSFSWTLSAIFTT", "category": "Criterion not met"}

Continue with the next binder.
Prompt: Threshold test, HSA < 3000: SEQ ID NO 200 (designed binder) MLPAPKNLVVSRVTEDSARLSWTAPDAAFDSFYIEYYEWMHTGEAIVLTVPGSERSYDLTGLKPGTEYSVYIYGVKGGYPSSPLSAIFTT
Completion: Criterion met
